- Tested Target: T1, recombinant human DLL4 (Cat# 1506-D4/CF, R&D Systems) (human, UniProt Q9NR61 27-529)
- T1 construct: Bought protein; also called hDLL4; rHuman DLL4
- Experiment Notes: ELISA, DLL4 coated, Fab 2.22 nM
- Method: The plate was blocked by adding 1% BSA in Tris-buffered Saline Tween (TBST) and incubating for 1 hour at room temperature followed by washing 2 times with 150 μl TBST. A Fab antibody was serially diluted in 1% BSA in PBS. […] The reaction was immediately halted by the addition of 50 μl 0.5M H₂SO₄ and the absorbance at 450 nm was measured using an ELISA plate reader.
Measured ELISA absorbance at 450 nm by item
Response body: numeric value in A450, unit text excluded.

Fab VH1-46_IGHD6-6*01_IGHJ1*01 S102A/S103P/S104F/H111F N52L/S54T/G56H & L6_IGKJ1*01 S28N/S30D/S31H (Fab, V domains shown, Fab made in E. coli: VH on CH1 with His6 and Flag tags (Plasmid A), VL on kappa CL (Plasmid C); also called H: APFF LTH & L: NDH) VH: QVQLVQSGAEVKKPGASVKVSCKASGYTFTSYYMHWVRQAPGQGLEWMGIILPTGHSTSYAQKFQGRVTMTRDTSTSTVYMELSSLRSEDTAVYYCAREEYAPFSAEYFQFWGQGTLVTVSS VL: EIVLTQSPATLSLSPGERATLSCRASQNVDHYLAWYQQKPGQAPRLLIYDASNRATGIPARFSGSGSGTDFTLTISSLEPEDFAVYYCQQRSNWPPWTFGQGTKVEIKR = 0.463

Param item = Fab VH1-46_IGHD6-6*01_IGHJ1*01 S102A/S103P/S104F/H111F I51A/N52L/S54T/G56H & L6_IGKJ1*01 S28N/S30D/S31H S52L/A55S (Fab, V domains shown, Fab made in E. coli: VH on CH1 with His6 and Flag tags (Plasmid A), VL on kappa CL (Plasmid C); also called H: APFF ALTH & L: NDH LS) VH: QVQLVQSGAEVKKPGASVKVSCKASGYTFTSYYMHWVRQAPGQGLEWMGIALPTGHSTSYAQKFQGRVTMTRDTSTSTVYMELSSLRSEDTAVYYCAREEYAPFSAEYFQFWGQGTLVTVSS VL: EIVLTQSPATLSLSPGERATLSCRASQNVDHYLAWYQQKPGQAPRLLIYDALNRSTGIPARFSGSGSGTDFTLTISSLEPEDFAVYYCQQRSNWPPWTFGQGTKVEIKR ; retrieve measured ELISA absorbance at 450 nm.
0.04

Same thing, different binder: Fab VH5-51_IGHD5-18*01>3_IGHJ4*01 G100K/G104T & V3-4_IGLJ1*01 M94R/S96M (Fab, V domains shown, Fab made in E. coli: VH on CH1 with His6 and Flag tags (Plasmid A), VL on lambda CL (Plasmid E); also called H: KT & L: RM) VH: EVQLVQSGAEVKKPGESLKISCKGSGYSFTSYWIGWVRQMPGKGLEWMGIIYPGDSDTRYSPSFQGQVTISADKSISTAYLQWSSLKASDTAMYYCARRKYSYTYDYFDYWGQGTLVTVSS VL: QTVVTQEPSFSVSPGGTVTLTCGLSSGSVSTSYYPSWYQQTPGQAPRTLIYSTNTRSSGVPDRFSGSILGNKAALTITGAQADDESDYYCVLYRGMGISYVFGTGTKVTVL
0.007

Next up: Fab VH1-46_IGHD6-6*01_IGHJ1*01 S102A/S103P/S104F/H111F I51A/N52L/S54T/G56H & L6_IGKJ1*01 S28N/S30D/S31H (Fab, V domains shown, Fab made in E. coli: VH on CH1 with His6 and Flag tags (Plasmid A), VL on kappa CL (Plasmid C); also called H: APFF ALTH & L: NDH) VH: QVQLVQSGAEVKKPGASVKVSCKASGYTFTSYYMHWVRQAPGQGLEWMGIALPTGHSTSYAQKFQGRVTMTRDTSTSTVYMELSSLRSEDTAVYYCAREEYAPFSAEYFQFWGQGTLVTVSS VL: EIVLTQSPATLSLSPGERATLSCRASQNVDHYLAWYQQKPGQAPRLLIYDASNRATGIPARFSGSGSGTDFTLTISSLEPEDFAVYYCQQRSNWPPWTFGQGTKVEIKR
0.069

What do you have for Fab VH5-51_IGHD5-18*01>3_IGHJ4*01 G100K/G104T G24T/S28R/G35V & V3-4_IGLJ1*01 (Fab, V domains shown, Fab made in E. coli: VH on CH1 with His6 and Flag tags (Plasmid A), VL on lambda CL (Plasmid E); also called H: KT TRV & L: wt) VH: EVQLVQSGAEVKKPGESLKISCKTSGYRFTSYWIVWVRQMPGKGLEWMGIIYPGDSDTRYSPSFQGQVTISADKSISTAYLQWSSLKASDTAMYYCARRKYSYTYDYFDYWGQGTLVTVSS VL: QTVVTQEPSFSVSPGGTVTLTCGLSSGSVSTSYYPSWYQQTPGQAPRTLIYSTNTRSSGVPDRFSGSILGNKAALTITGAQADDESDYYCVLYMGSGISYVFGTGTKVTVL ?
0
